Overview of recorded GI50 for various compounds
- System: HOP-62
- ASSAY_DETAILS: Anticancer activity against human HOP62 cells after 48 hrs by sulforhodamine B assay
- Format: functional
- MEASUREMENT_PARAMETERS: Homo sapiens, HOP-62, 48 h
The answer is to be given in nM; state only the numeric part.

Example entries and their recorded answers appear below.
CCCCCCCCCCCCCCCCCC[n+]1ccn(C)c1.[Cl-] | 967
CCCCCCCCCCCCCCCC[n+]1ccn(C)c1.[Cl-] | 1170
CCCCCCCCCCCCCCCCCC[n+]1ccn(C)c1.FC(F)(F)C(F)(F)[P-](F)(F)(F)(C(F)(F)C(F)(F)F)C(F)(F)C(F)(F)F | 390
CCCCCCCCCCCCCCCCCC[n+]1ccn(C)c1.O=S(=O)([N-]S(=O)(=O)C(F)(F)F)C(F)(F)F | 1110

Documented GI50 of "CCCCCCCCCCCC[n+]1ccn(C)c1.[Cl-]" : 4860

* * *

- Test system: DU-145
- ASSAY_DETAILS: Anticancer activity against human DU145 cells after 48 hrs by sulforhodamine B assay
- Type: functional
- MEASUREMENT_PARAMETERS: Homo sapiens, DU-145, 48 h
MEASURED_PARAMETER: GI50 (nM)
Write it as a number; the unit nM goes unstated.

CCCCCCCCCCCCCCCCCC[n+]1ccn(C)c1.FC(F)(F)C(F)(F)[P-](F)(F)(F)(C(F)(F)C(F)(F)F)C(F)(F)C(F)(F)F | 495
CCCCCCCCCCCCCCCCCC[n+]1ccn(C)c1.O=S(=O)([N-]S(=O)(=O)C(F)(F)F)C(F)(F)F | 792
CCCCCCCCCCCCCCCCCC[n+]1ccn(C)c1.[Cl-] | 635

# evaluate next
GI50 for DU-145 with input "CCCCCCCCCCCCCCCC[n+]1ccn(C)c1.[Cl-]" equals 719

* * *

- Tested on: ACHN
- ASSAY_DETAILS: Anticancer activity against human ACHN cells after 48 hrs by sulforhodamine B assay
- Format: functional
- MEASUREMENT_PARAMETERS: Homo sapiens, ACHN, 48 h
MEASURED_PARAMETER: GI50 (nM)
Express your answer in nM, writing the number without its unit.

Look over these answered cases.
CCCCCCCCCCCCCCCCCC[n+]1ccn(C)c1.FC(F)(F)C(F)(F)[P-](F)(F)(F)(C(F)(F)C(F)(F)F)C(F)(F)C(F)(F)F | 281
CCCCCCCCCCCCCCCCCC[n+]1ccn(C)c1.O=S(=O)([N-]S(=O)(=O)C(F)(F)F)C(F)(F)F | 920
CCCCCCCCCCCCCCCC[n+]1ccn(C)c1.[Cl-] | 832

With those in mind, consider the next compound.
Value of GI50 reported for the compound "CCCCCCCCCCCC[n+]1ccn(C)c1.[Cl-]" is 7240

* * *

Listed here are compounds together with their documented GI50.
- Test system: NCI-H522
- ASSAY_DETAILS: Anticancer activity against human NCI-H522 cells after 48 hrs by sulforhodamine B assay
- Assay type: functional
- MEASUREMENT_PARAMETERS: Homo sapiens, NCI-H522, 48 h
Use µM as the unit, but write only the number.

CCCCCCCCCCCC[n+]1ccn(C)c1.[Cl-] | 2.37
CCCCCCCCCCCCCCCCCC[n+]1ccn(C)c1.O=S(=O)([N-]S(=O)(=O)C(F)(F)F)C(F)(F)F | 1.02
CCCCCCCCCCCCCCCC[n+]1ccn(C)c1.[Cl-] | 1.01

Moving on to another compound below.
GI50 reported for this compound "CCCCCCCCCCCCCCCCCC[n+]1ccn(C)c1.FC(F)(F)C(F)(F)[P-](F)(F)(F)(C(F)(F)C(F)(F)F)C(F)(F)C(F)(F)F" : 0.285
